For each entry below, report its IC50 value.
- Test system: mixed lymphocyte reaction (PBMC with allogeneic PBMC or Eppstein-Barr Virus-transformed human B cells as stimulator cells)
- Assay Overview: Mixed lymphocyte reaction (MLR) assay
- Type: cell-based
- Cond: lowest concentration giving 50% suppression of the MLR; [3H]-thymidine

Look up IC50: "COc1ccc(-c2cnc3nc(N)nc(N4CCN(CCn5cccc5)CC4)c3n2)cc1OC" 200 nM

Look up IC50: "COc1ccc(-c2cnc3nc(N)nc(N4CCN(C(=O)N(c5ccccc5)c5ccccc5)CC4)c3n2)cc1OC" 700 nM

Look up IC50: "CCCCNC(=O)N1CCN(c2nc(N)nc3ncc(-c4ccc(OC)c(OC)c4)nc23)CC1" 100 nM

Look up IC50: "COc1ccc(-c2cnc3nc(N)nc(N4CCN(S(=O)(=O)Cc5ccccc5)CC4)c3n2)cc1OC" 200 nM

Look up IC50: "CC(=O)N1CCN(c2nc(N)nc3ncc(-c4ccc(F)cc4)nc23)CC1" 1900 nM

Look up IC50: "COc1ccc(-c2cnc3nc(N)nc(N4CCN(C(=O)Oc5ccc(Cl)cc5)CC4)c3n2)cc1OC" 100 nM

Look up IC50: "COc1ccc(-c2cnc3nc(N)nc(N4CCN(CC(=O)N(C)c5ccccc5)CC4)c3n2)cc1OC" < 100 nM

Look up IC50: "COc1ccc(-c2cnc3nc(N)nc(N4CCN(C(=O)C=Cc5ccccc5)CC4)c3n2)cc1OC" < 1 nM

Look up IC50: "COc1ccc(-c2cnc3nc(N)nc(N4CCN(c5ccccc5OC)CC4)c3n2)cc1OC" 3800 nM

Look up IC50: "COc1ccc(-c2cnc3nc(N)nc(N4CCN(c5cccc(C(F)(F)F)c5)CC4)c3n2)cc1OC" 700 nM

Look up IC50: "COc1ccc(-c2cnc3nc(N)nc(N4CCN(CC(=O)Nc5nccs5)CC4)c3n2)cc1OC" 100 nM

Look up IC50: "COc1ccc(-c2cnc3nc(N)nc(N4CCN(C(=O)Oc5ccc(F)cc5)CC4)c3n2)cc1OC" 50 nM

Look up IC50: "CCCCCN1CCN(c2nc(N)nc3ncc(-c4ccc(OC)c(OC)c4)nc23)CC1" 3800 nM

Look up IC50: "COc1ccc(-c2cnc3nc(N)nc(N4CCN(C(=O)Nc5cccc(C(F)(F)F)c5)CC4)c3n2)cc1OC" 36 nM

Look up IC50: "COc1cc(-c2cnc3nc(N)nc(N4CCN(c5ccc(C)cc5)CC4)c3n2)ccc1OC(C)C" 4400 nM

Look up IC50: "COc1ccc(-c2cnc3nc(N)nc(N4CCN(C(=O)c5cccs5)CC4)c3n2)cc1OC" 100 nM

Values were extracted from patent US20070032477A1.
